Observed pKi for stromelysin MMP-3 (Homo sapiens), reported per entry below.
Note: pKi values are expressed as the negative base-10 logarithm of concentration in M.

Below: 2 molecules and their reported pKi.
MOLECULE: CNC(=O)C(Cc1ccc(F)cc1)NC(=O)C(CC(=O)NO)CC(C)C (stereo not shown)
OBSERVED: 7.19
//
MOLECULE: CNC(=O)C(Cc1ccc(OCc2ccccc2)cc1)NC(=O)C(CC(=O)NO)CC(C)C (stereo not shown)
OBSERVED: 9.05

Could you now look at the following molecule, please?
Requested field: pKi. Item: CNC(=O)[C@@H](NC(=O)[C@@H](CC(=O)NO)CC(C)C)C(C)C
6.90

Hello, the source for this data is patent US20030114529A1, in case you need it.
